Exercise: for every item that follows, state its recorded log10 IC50.
# MEASURED_ON: mPDE10A7 (Mus musculus, UniProt Q8CA95)
# Sequence (Q8CA95 446-763 limits assumed): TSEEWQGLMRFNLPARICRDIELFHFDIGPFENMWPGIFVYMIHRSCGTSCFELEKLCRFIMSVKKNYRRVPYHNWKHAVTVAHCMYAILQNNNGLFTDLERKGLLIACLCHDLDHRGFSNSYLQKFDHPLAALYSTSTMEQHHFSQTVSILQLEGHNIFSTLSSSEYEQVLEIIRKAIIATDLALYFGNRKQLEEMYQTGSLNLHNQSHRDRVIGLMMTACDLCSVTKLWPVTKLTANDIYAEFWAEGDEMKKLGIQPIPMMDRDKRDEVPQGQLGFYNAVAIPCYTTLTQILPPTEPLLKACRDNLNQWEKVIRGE
# TEST: mPDE10A7 enzyme inhibition (IMAP fluorescence polarization)
# Format: biochemical
# CONDITIONS_USED: Table 3; fluorescein labeled cAMP or cGMP substrate
Give log10 of IC50, with IC50 taken in nM.

Some compounds with known log10 IC50 results, for comparison:
Query: log10 IC50 for COc1cc2nncc(-n3ncc4c(N5CCCC5)cccc43)c2cc1OC ?
Result: 1.98

Query: Repeat for the following compound: CCN(C)c1cccc2c1cnn2-c1cnnc2cc(OC)c(OC)cc12
Result: 1.64

Query: Repeat for the following compound: COc1ccc(C2(O)CCCN(c3cnnc4cc(OC)c(OC)cc34)C2)cc1 (centres unmarked)
Result: 1.28

// each compound listed below needs its log10 IC50
1. COc1cc2nncc(-c3ccc4c(c3)N(C)C(=O)C4(C)C)c2cc1OC
2. COc1cc2nncc(N3CCOC(c4ccc(O)cc4)C3)c2cc1OC (racemic)
3. COc1cc2nncc(-n3ncc4c(Br)cccc43)c2cc1OC
4. COc1cc2nncc(N3CCCC(C4CCCCC4)C3)c2cc1OC (racemic)
5. COc1cc2nncc(-c3nc4ccccc4o3)c2cc1OC
6. COc1cc2nncc(N3CCC(c4ccccc4)C3)c2cc1OC (racemic)

Result:
1. 1.27
2. 0.58
3. 2.18
4. 2.42
5. 2.34
6. 2.42

====

# MEASURED_ON: mPDE10A7 (Mus musculus)
# Sequence (Q8CA95 446-763 limits assumed): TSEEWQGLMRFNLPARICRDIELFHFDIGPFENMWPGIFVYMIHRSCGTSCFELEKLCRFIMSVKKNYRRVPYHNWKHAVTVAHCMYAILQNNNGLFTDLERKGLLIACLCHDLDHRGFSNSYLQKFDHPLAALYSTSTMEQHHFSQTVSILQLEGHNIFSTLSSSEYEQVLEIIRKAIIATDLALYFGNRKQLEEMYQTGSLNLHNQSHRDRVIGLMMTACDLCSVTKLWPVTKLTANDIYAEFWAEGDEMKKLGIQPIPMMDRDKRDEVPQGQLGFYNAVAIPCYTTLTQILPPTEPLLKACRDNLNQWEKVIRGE
# TEST: mPDE10A7 enzyme inhibition (IMAP fluorescence polarization)
# Format: biochemical
# CONDITIONS_USED: Table 4; fluorescein labeled cAMP or cGMP substrate
QUANTITY_NAME: pIC50
Numbers only, as −log10 of the molar value.

Query: Record COc1ccc(C2CN(c3cnnc4cc(O)c(OC)cc34)CCO2)cc1 (racemic) : what is its pIC50 with mPDE10A7 (Mus musculus)?
Result: 6.84
